# assay: Tmax in Sprague-Dawley rat at 10 mg/kg, po
# Assay type: ADME, organism-based
# Set-up: dose 10 mg/kg, route oral
# conditions: in vivo
measurement-type: Tmax (min)
Note: unit min is implicit; provide only the numeric part.

query: State its Tmax: O=C1NCCc2nc(OCc3cccc(F)c3)ccc21
result: 30

* * *

Reported Fu values for the following compounds.
# System: Plasma
# assay: Fraction unbound in rat plasma
# Assay type: ADME, cell-free
Just the number, please, no unit attached.

// solved cases for Fu follow
{"smiles-representation": "O=C1c2ccc(OCc3cccc(F)c3)nc2CCN1c1ccc(F)cn1", "measurement-type": "Fu", "obs-value": 0.025}
{"smiles-representation": "O=C1NCCc2nc(OCc3cccc(F)c3)ccc21", "measurement-type": "Fu", "obs-value": 0.034}
{"smiles-representation": "O=C1c2ncc(COc3ccccc3)cc2CCN1c1ccc(F)cc1", "measurement-type": "Fu", "obs-value": 0.11}

Please turn your attention to the following entry.
query: State its Fu: O=C1c2ccc(COc3cccc(F)c3)nc2CCN1c1ccc(F)cc1
result: 0.029

* * *

# target-under-test: Metabotropic glutamate receptor 5 (Rattus norvegicus) (UniProt P31424)
# assay: Positive allosteric modulator activity at rat mGlu5 receptor expressed in HEK293 cells assessed as potentiation of glutamate-induced calcium mobilization at 30 uM by fluorescence assay relative to glutamate
# Type: functional, cell-based
Reported %max values for the following molecules.
Note: unit % is implicit; provide only the numeric part.

// solved cases for %max follow
{"smiles-representation": "O=C(c1cccc(F)c1)N1CCc2ncc(OCc3cccc(F)c3)cc2C1", "unit-info": "%", "%max": 30}
{"smiles-representation": "CC1(CN2CCc3nc(OCc4cccc(F)c4)ccc3C2=O)COC1", "unit-info": "%", "%max": 39}
{"smiles-representation": "O=C1c2ccc(COc3cccc(F)c3)nc2CCN1c1ccc(F)cc1", "unit-info": "%", "%max": 72}
{"smiles-representation": "O=C1c2cnc(COc3ccccc3)cc2CCN1c1ccc(F)cc1", "unit-info": "%", "%max": 30}
{"smiles-representation": "O=C(c1ccc(F)cc1)N1CCc2ncc(COc3ccc(F)cc3)cc2C1", "unit-info": "%", "%max": 53}
{"smiles-representation": "O=C1c2ccc(OCc3cccc(F)c3)nc2CCN1c1ccc(F)cc1", "unit-info": "%", "%max": 38}

query: State its %max: O=C1c2ccc(OCc3cccc(F)c3)nc2CCN1Cc1ccccc1
result: 36

query: State its %max: O=C1c2ccc(OCc3cccc(F)c3)nc2CCN1CC1CCC1
result: 36

query: State its %max: O=C1c2ccc(OCc3ccccc3)nc2CCN1Cc1ccccc1
result: 23

* * *

Reported pEC50 values for the following compounds.
# target-under-test: Metabotropic glutamate receptor 5 (Rattus norvegicus, UniProt P31424)
# Sequence (P31424 whole entry): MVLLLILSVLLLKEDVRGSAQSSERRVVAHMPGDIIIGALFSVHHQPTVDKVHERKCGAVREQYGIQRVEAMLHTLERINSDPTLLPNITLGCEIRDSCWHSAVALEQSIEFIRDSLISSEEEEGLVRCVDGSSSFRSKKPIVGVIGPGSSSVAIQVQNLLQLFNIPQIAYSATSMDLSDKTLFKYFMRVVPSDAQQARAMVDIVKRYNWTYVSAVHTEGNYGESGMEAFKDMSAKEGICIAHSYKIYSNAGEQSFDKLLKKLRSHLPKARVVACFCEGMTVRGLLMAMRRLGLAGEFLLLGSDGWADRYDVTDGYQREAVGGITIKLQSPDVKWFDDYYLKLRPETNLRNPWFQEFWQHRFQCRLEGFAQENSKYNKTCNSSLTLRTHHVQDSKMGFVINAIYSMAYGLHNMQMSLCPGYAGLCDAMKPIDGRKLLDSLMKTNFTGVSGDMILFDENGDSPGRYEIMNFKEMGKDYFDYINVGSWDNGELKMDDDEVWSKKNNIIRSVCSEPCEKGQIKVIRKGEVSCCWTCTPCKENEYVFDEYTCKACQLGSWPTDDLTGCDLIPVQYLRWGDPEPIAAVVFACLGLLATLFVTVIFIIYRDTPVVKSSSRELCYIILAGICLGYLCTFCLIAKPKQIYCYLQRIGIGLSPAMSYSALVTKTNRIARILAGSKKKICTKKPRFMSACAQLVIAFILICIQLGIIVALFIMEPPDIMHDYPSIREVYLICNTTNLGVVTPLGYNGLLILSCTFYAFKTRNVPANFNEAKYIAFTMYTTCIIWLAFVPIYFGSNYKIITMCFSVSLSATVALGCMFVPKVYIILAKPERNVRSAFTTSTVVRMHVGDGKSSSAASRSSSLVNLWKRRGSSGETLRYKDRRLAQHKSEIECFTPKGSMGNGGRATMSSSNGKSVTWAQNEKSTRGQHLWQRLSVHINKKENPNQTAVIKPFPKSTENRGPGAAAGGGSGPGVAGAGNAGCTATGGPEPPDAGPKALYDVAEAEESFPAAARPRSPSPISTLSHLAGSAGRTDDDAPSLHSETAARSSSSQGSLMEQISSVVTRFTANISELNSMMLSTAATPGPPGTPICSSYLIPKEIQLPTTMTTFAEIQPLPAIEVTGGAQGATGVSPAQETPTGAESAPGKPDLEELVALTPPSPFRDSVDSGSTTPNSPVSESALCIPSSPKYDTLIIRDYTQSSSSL
# assay: Positive allosteric modulator activity at rat mGlu5 receptor expressed in HEK293 cells assessed as potentiation of glutamate-induced calcium mobilization by fluorescence assay
# Type: functional, cell-based
# conditions: read-out: EC50
# pEC50: negative log10 of molar concentration; output just the value

// solved cases for pEC50 follow
{"smiles-representation": "O=C1NCCc2nc(OCc3cccc(F)c3)ccc21", "pEC50": 6.65}
{"smiles-representation": "O=C1c2ccc(OCc3cccc(F)c3)nc2CCN1c1ccc(F)cn1", "pEC50": 6.67}
{"smiles-representation": "O=C(c1ccc(F)cc1)N1CCc2ncc(COc3cccc(F)c3)cc2C1", "pEC50": 5.96}
{"smiles-representation": "O=C(c1ccc(F)cc1)N1CCc2ncc(COc3ccccc3)cc2C1", "pEC50": 6.19}
{"smiles-representation": "O=C1c2ccc(COc3cccc(F)c3)nc2CCN1c1ccc(F)cc1", "pEC50": 7.01}

Please turn your attention to the following entry.
query: State its pEC50: O=C1NCCc2nc(OCc3cccc(Cl)c3)ccc21
result: 7.21
